Target: T1, human IL-18BP (human, UniProt O95998 31-194)
T1 construct: also called hIL-18BP; Mature Human Isoform A
T1 sequence: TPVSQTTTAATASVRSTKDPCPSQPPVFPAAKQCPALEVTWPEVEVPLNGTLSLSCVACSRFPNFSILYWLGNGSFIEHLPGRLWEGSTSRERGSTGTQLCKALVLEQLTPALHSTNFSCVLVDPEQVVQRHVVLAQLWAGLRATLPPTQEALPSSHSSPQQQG
Experiment: BLI, apparent KD, one conc.
pKd: −log10 of the molar value.
parameter: pKd

binder: SA301a light chain variant S28Y (antibody, V domains shown) VH: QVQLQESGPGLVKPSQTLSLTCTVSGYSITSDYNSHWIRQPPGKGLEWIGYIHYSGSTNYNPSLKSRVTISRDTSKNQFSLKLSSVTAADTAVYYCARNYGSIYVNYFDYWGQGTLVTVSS VL: EIVLTQSPATLSLSPGERATLSCSASSYVSYMYWYQQKPGQAPRPLIYRTSNLASGIPARFSGSGSGTDFTLTISSLEPEDFAVYYCQQYHSYPTFGGGTKVEIK
parameter: pKd
test_result: 9.33
//
binder: SA301a light chain variant S28G (antibody, V domains shown) VH: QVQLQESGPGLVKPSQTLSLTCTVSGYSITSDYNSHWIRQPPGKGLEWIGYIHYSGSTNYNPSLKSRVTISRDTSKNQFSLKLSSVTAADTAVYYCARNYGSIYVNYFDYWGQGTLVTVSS VL: EIVLTQSPATLSLSPGERATLSCSASSGVSYMYWYQQKPGQAPRPLIYRTSNLASGIPARFSGSGSGTDFTLTISSLEPEDFAVYYCQQYHSYPTFGGGTKVEIK
parameter: pKd
test_result: 9.29
//
binder: SA301a light chain variant V29H (antibody, V domains shown) VH: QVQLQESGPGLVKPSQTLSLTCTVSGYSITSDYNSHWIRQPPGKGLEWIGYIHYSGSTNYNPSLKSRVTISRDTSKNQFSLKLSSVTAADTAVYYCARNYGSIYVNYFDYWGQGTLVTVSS VL: EIVLTQSPATLSLSPGERATLSCSASSSHSYMYWYQQKPGQAPRPLIYRTSNLASGIPARFSGSGSGTDFTLTISSLEPEDFAVYYCQQYHSYPTFGGGTKVEIK
parameter: pKd
test_result: 9.33

// data source = patent US20250368745A1
